Species on record: Homo sapiens
ASSAY_METHOD_TEXT: Selectivity for human cathepsin K over human cathepsin S
REPORTED_PROPERTY: Selectivity ratio
Format: numeric value only, no unit, no commentary.

Some compounds with known Selectivity ratio results, for comparison:
CSc1ccc(-c2c[nH]c(=O)cc2C2CCC(F)(F)CC2C(=O)NCC#N)cc1 (racemic); 540
CSc1ccc(-c2c(C3CCC(F)(F)CC3C(=O)NCC#N)nnn2Cc2ccccc2)cc1 (racemic); 180
CSc1ccc(-c2nc(C)sc2C2CCC(F)(F)CC2C(=O)NCC#N)cc1 (racemic); 380

Now look at this one.
Q: # return recorded Selectivity ratio for entry CSc1ccc(-c2cn(C)nc2C2CCC(F)(F)CC2C(=O)NCC#N)cc1 (racemic)
A: 490

Every entry's value here was drawn from ChEMBL document CHEMBL1139919.
